Reference source: patent US8535661B2

System: bacteria
METHOD_DESCRIPTION: Bacterial counts in treated contaminated metalworking fluid samples
Format: cell-based
COND: Day 14
READOUT_TYPE: Bacterial Counts

A selection of reference data follows.
* OCCN1CN(CCO)CN(CCO)C1 [Sample 4] | >10^7 bacteria/mL
* OCCN1CN(CCO)CN(CCO)C1 [Sample 3] | >10^7 bacteria/mL
* CCCCNC(=O)OCC#CI [Sample 7, 3-iodo-2-propynyl butyl carbamate] | 10^5 bacteria/mL

API: the following record is the query input.
Quote Bacterial Counts reported for CCCCNC(=O)OCC#CI [Sample 8, 3-iodo-2-propynyl butyl carbamate] please. >10^7 bacteria/mL

* * *

Below, each entry is listed with its recorded Mold and Yeast Counts.
Tested on: yeast and mold
METHOD_DESCRIPTION: Mold and yeast counts in treated contaminated metalworking fluid samples
Assay type: cell-based
COND: Day 12
Answer with the value's number alone.

- OCCN1CN(CCO)CN(CCO)C1 [Sample 4]: 100

Read the next record carefully.
Look up Mold and Yeast Counts of CCCCNC(=O)OCC#CI [Sample 7, 3-iodo-2-propynyl butyl carbamate] and report it. 100
